Test system: NCI-H23 lung
Measurement notes: NCI-60 one-dose screen, 48 h (100 = growth as untreated, 0 = no growth, -100 = all killed)
Run parameters: 10 µM
Method: Growth inhibition of the NCI-H23 human Non-Small Cell Lung tumor cell line is measured as a screen for anti-cancer activity. Cells are grown in 96 well plates and exposed to the test compound for 48 hours. Compounds are tested at a single concentration, which is 10^-5 M for most compounds. The reported endpoint is percent growth (GI% or GIPRCNT), where numbers from 0 - 100% represent growth inhibition, and numbers from -100% - 0 represent cell death. […]
About 83,000 compounds went through this panel and 20% of them were active in at least one assay; those are over-represented in the sample as a whole.
Lab note: anything with growth at or over 80% counts as 1.0; the rest go in 0.0.

Reference set, count: 5
>  <Compound>
O=C(N/N=C/c1ccc(Cl)cc1)c1ccc(Cc2n[nH]c(=O)c3cccnc23)cc1

>  <Label class>
1.0

$$$$
>  <Compound>
CC[C@@H](C(=O)[C@@H](C)[C@@H](O)[C@H](C)[C@@H]1O[C@@H]([C@@H](CC)C(=O)N(CC)CC)CC[C@@H]1C)C1O[C@]2(C=CC(=O)[C@]3(CC[C@@](C)([C@H]4CC[C@](O)(CC)[C@H](C)O4)O3)O2)[C@H](C)C[C@@H]1C (stereo partly specified)

>  <Label class>
0.0

$$$$
>  <Compound>
CCC(=O)OC1CCC2C3CCC(=O)OC3C(C)(CCC(=O)O)CC12C (stereo unspecified)

>  <Label class>
0.0

$$$$
>  <Compound>
Clc1nc2ccc(Br)cc2cc1-c1nc2ccccc2[nH]1

>  <Label class>
1.0

$$$$
>  <Compound>
COc1ccc(-c2nn(-c3cccc(Cl)c3)cc2-c2c(C#N)c(N)n(N)c(=O)c2C#N)cc1

>  <Label class>
0.0

$$$$

Entry CCOC(=O)CSc1nc(-c2cc(OC)ccc2OC)cc(-c2ccc(OC)cc2)c1C#N : is its growth no less than 80%? 1.0

Please indicate if the recorded growth for O=C1NC(=O)c2c(CCCSc3nc4ccccc4c(=O)n3CCc3ccccc3)cccc21 meets or exceeds 80%. 0.0

Check if growth >= 80% (inclusive). Item: O=C(CCCSc1nc(-c2ccccc2)cc(-c2ccc(Cl)cc2)n1)NO 0.0

Is it the case that O=C(CC(CC(=O)c1ccccc1)c1ccccc1O)c1ccccc1 has growth reaching or exceeding 80%? 1.0

Answer whether growth of COc1ccc(-c2nn(-c3cccc(Cl)c3)cc2-c2cc(-c3cccs3)[nH]c(=S)n2)cc1 is greater than or equal to 80%. 0.0

Determine whether measured growth meets or exceeds 80% for CCNCC(=O)Nc1ccc(C(=O)OCC)cc1 1.0

Assess whether reported growth for COc1ccc2c(c1)C(=O)/C(=C/c1ncc([N+](=O)[O-])n1C)O2 sits at 80% or higher. 0.0
